Target: c-Src SH2
Test: SH2 binding enrichment of the phosphorylated peptide, bacterial display (enrichment ratio); higher = better substrate or ligand; peptides without Tyr show the background
propertyLabel: SH2 binding enrichment

sequenceText | propertyLabel | quantitativeReadout
IDAICYFRMEN [NPHS2_Y194_YF] | SH2 binding enrichment | 0.703
LNGDRYFKGIV [DCX_Y64_R59L] | SH2 binding enrichment | 0.618
YAKSVYWDNTL [NUP107_Y296_E298D] | SH2 binding enrichment | 0.587
QRRNVYYYSYL [PTEN_Y176_Y174N] | SH2 binding enrichment | 1.58
SLLVVYPWTQR [HBB_Y36_R31S] | SH2 binding enrichment | 1.14

(A) PQIVNYSPDCI [LDHB_Y128_K127N]
(B) ESKKHYGYSLY [ANXA3_Y295_F291S]
(C) CTTIHYDYMCN [TP53_Y234_N235D]
Sort the sequences on SH2 binding enrichment; start with the lowest figure. Please write the labels in the order that was asked for.
A, B, C
(A: 0.506, B: 0.913, C: 8.99)

----------
Target: SHP2-C SH2
Assay: SH2 binding enrichment of the phosphorylated peptide, bacterial display (enrichment ratio); higher = better substrate or ligand; peptides without Tyr show the background
propertyLabel: SH2 binding enrichment

# count of solved cases: 4
sequenceText | SH2 binding enrichment
DNEYAYLKAII [HNF4A_Y288] | 0.513
SVTCTSSPALN [TP53_Y126_Y126S] | 0.603
PLDEEYFTLQI [TP53_Y327_G325E] | 1.12
YDCGMYSHLQG [LGR4_Y848] | 0.811

(1) LTERGYSFVTT [ACTA1_Y200]
(2) GRDVIYKGFED [NFU1_Y194_G190R]
(3) YMRGMYFRMTD [PLA2G6_Y541_K545T]
(4) MKSIKYMDKEV [CCDC60_Y41_I46V]
Descending sort on SH2 binding enrichment required. Please write the labels in the order that was asked for.
1, 3, 2, 4
(1: 6.24, 3: 1.83, 2: 0.769, 4: 0.515)

(a) KLPDAYEPLIL [G6PD_Y437_R439P]
(b) IGMFSYVMLAS [GGCX_Y301]
(c) KGTAGYTTVAV [RET_Y752_R749T]
Sort the sequences on SH2 binding enrichment; start with the lowest figure. Please write the labels in the order that was asked for.
b, a, c
(b: 0.604, a: 0.917, c: 2.15)

----------
Listing of recorded phosphorylation enrichment by entry.
Molecular target: FGFR1 (UniProt P11362)
Sequence (P11362 whole entry, looked up): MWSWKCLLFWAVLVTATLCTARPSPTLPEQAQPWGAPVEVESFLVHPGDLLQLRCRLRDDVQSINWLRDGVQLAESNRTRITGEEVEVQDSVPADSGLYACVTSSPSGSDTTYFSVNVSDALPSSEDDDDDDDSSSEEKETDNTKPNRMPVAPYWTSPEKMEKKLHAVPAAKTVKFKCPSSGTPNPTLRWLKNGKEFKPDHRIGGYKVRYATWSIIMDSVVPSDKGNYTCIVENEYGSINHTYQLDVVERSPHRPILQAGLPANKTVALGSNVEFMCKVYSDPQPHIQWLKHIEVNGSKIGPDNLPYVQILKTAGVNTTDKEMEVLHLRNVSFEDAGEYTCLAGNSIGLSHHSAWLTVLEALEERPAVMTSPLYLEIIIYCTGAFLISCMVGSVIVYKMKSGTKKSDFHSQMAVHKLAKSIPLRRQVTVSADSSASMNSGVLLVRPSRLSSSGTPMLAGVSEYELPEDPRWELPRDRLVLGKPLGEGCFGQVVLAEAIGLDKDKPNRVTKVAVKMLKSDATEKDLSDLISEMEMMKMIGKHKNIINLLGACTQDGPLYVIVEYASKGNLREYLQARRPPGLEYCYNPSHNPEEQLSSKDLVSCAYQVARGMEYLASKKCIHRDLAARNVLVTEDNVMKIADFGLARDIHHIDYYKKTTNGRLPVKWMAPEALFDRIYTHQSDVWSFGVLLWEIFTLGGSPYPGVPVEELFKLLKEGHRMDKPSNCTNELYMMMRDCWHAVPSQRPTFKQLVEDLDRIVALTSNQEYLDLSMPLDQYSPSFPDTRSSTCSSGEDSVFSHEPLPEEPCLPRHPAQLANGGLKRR
Assay: phosphorylation enrichment, bacterial display (enrichment ratio); higher = better substrate or ligand; peptides without Tyr show the background
Could you keep your reply to the number by itself?

# count of solved cases: 3
sequenceText | systemTested | phosphorylation enrichment
SNMPSYSGHFT [GRIN2A_Y1224_T1223S] | FGFR1 (UniProt P11362) | 0.328
CTTIHYNYMSN [TP53_Y234_C238S] | FGFR1 (UniProt P11362) | 0.499
SRDDFYETIAM [NPY1R_Y347_D346Y_YF] | FGFR1 (UniProt P11362) | 0.5

Which phosphorylation enrichment is listed for HGEAFYSEVKA [PAK5_Y182_P187A_YF] ?
4.75

Lookup FLENFYDLEKD [MMP3_Y42_K45E_YF]
0.504

Lookup NFGTNYRVGSS [CPO_Y278_K273N_YF]
0.508

Lookup QHNPEYVQQAS [LRRC7_Y1058]
0.486

Lookup DKMEAYNINET [TEKT4_Y210_D213N]
0.481

Lookup SYDLDYDSVQP [MYC_Y16_N11S]
0.589

Lookup VATRWYQSPEL [CDKL5_Y177_R178Q]
0.88

Lookup ADKAAYLQSMN [MYH2_Y389_L393M]
0.47

Lookup ADYYDYGHGLS [KHDRBS3_Y304]
18.5

Lookup PVEAAYQKVVA [HBB_Y131_Q128E]
0.573

Lookup MASTSYDYCRV [BST2_Y6]
1.27

Lookup YQLENYCNGGG [INS_Y108]
0.536
